Reference source: paper PMC9095466

experiment: Cytotoxicity CC50 in Calu-3 lung epithelial cells; format: cell-based, human; settings: human, Calu-3 cells, Log [inhibitor] -4.52; single replicates; read-out: % of Viability
Assign viability at 24 h, 30 µM to each entry below.
Numbers only, in %.

// known answers, use as guide
CC(=O)N[C@@H](CCC(N)=O)C(=O)N[C@@H](Cc1ccccc1)C(=O)N[C@@H](CCCNC(=N)N)C(=O)c1nc2ccccc2s1    85
N=C(N)NCCCCC(=O)NC(CCC(N)=O)C(=O)NC(Cc1ccccc1)C(=O)NC(CCCNC(=N)N)C(=O)c1nc2ccccc2s1 (stereo not shown)    98
N=C(N)NCCCCC(=O)N[C@@H](CCC(=O)O)C(=O)N[C@@H](Cc1ccccc1)C(=O)N[C@@H](CCCNC(=N)N)C(=O)c1nc2ccccc2s1    89

Please look at the following compound next.
## Input What value of measured viability at 24 h, 30 µM is listed for CS(=O)(=O)N[C@@H](CCC(N)=O)C(=O)N[C@@H](Cc1ccccc1)C(=O)N[C@@H](CCCNC(=N)N)C(=O)c1nc2ccccc2s1 ?
## Output 90

* * *

biological target: human TMPRSS2 (Homo sapiens); assay: cell-based; settings: Vero C1008; 10 nM compound, 24 h, vs untreated/vehicle TMPRSS2-expressing Vero E6 cells; read-out: inhibition of TMPRSS2 activity (reduction of substrate proteolysis)
Sequence (O15393 whole entry): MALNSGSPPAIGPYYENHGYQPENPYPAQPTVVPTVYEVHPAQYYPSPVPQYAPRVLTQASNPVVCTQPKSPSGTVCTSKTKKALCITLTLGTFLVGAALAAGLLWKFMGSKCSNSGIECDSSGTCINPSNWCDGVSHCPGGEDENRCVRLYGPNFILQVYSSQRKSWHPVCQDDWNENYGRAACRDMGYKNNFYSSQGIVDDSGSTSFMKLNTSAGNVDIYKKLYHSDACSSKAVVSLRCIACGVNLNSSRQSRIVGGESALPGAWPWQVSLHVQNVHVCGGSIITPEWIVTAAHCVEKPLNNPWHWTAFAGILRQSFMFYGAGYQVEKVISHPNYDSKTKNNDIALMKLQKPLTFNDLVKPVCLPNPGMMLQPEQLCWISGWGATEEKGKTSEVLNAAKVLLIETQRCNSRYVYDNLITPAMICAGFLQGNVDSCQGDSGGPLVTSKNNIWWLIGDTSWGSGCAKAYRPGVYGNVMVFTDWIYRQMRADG
Assign inhibition at 0.01 µM to each entry below.
Put your answer as a value accompanied by its unit after it.

// known answers, use as guide
N=C(N)NCCCCC(=O)NC(CCC(N)=O)C(=O)NC(Cc1ccccc1)C(=O)NC(CCCNC(=N)N)C(=O)c1nc2ccccc2s1 (centres unmarked) [Compound N-0130, (H)RQFR-kbt]    72%
CS(=O)(=O)NC(CCC(N)=O)C(=O)NC(Cc1ccccc1)C(=O)NC(CCCNC(=N)N)C(=O)c1nc2ccccc2s1 (centres unmarked) [Compound N-0385, Ms-QFR-kbt]    83%
N=C(N)NCCCC(NC(=O)C(Cc1ccccc1)NC(=O)C(CCC(N)=O)NC(=N)N)C(=O)c1nc2ccccc2s1 (centres unmarked) [Compound N-1296]    16%
CC(=O)NC(CCC(N)=O)C(=O)NC(Cc1ccccc1)C(=O)NC(CCCNC(=N)N)C(=O)c1nc2ccccc2s1 (centres unmarked) [Compound N-0386, Ac-QFR-kbt]    73%

Please look at the following compound next.
## Input What value of measured inhibition at 0.01 µM is listed for N=C(N)NCCCCC(=O)NC(CCC(N)=O)C(=O)NC(CC1CCCCC1)C(=O)NC(CCCNC(=N)N)C(=O)c1nc2ccccc2s1 (centres unmarked) [Compound N-0678] ?
## Output 5%

* * *

Experiment: Cytotoxicity assay (Cell Titer-Glo 2.0) in Vero E6 cells
Format: cell-based
Conditions: African green monkey, 10 μM compound, 24 h, relative to vehicle (DMSO 0.01%); single experiments N1-N4; read-out: % Viability of Vero E6 cells
Description: Calu-3 and Vero E6 cells (2500 or 10,000 cells for samples, 80–20,000 cells for standard curve) were seeded in 96-well plates. Following a 24-h incubation at 37 °C, 5% CO2, cells were washed with D-PBS and compounds added (10 µM) for an additional 24-h incubation. Cellular viability was assessed using Cell Titer-Glo 2.0 Cell Viability Assay (Promega) according to the manufacturer’s instructions. The number of viable cells was extrapolated using the standard curve. […]
Measurement Name: viability at 24 h, 10 µM (%)
Answers are plain numbers, in %.

## Input What value of measured viability at 24 h, 10 µM is listed for CS(=O)(=O)NC(CCC(N)=O)C(=O)NC(Cc1ccccc1)C(=O)NC(CCCNC(=N)N)C(=O)c1nc2ccccc2s1 (stereo not shown) [Compound N-0385, Ms-QFR-kbt] ?
## Output 127

* * *

Assign IC50 to each entry below.
target: human TMPRSS2 (Homo sapiens); assay: cell-based; conditions: Vero E6 cells expressing human TMPRSS2, 24 h with fluorogenic substrate; read-out: TMPRSS2 IC50 ± SD
Numbers only, in nM.

N=C(N)NCCCCC(=O)NC(CCC(N)=O)C(=O)NC(Cc1ccccc1)C(=O)NC(CCCNC(=N)N)C(=O)c1nc2ccccc2s1 (centres unmarked)    3.1

## Input Request body: readout IC50, system human TMPRSS2 (Homo sapiens), query N=C(N)NCCCCC(=O)N[C@@H](CCC(=O)O)C(=O)N[C@@H](Cc1ccccc1)C(=O)N[C@@H](CCCNC(=N)N)C(=O)c1nc2ccccc2s1 . Return the value.
## Output 5.2

* * *

test: Cytotoxicity CC50 in Calu-3 lung epithelial cells; assay type: cell-based, human; details: human; Calu-3 lung epithelial cells, n = 2; read-out: CC50 in Calu-3 cells
Assign CC50 at 24 h to each entry below.
Give bare numbers, in mM.

CS(=O)(=O)NC(CCC(N)=O)C(=O)NC(Cc1ccccc1)C(=O)NC(CCCNC(=N)N)C(=O)c1nc2ccccc2s1 (centres unmarked)    3.47

Please look at the following compound next.
## Input What value of measured CC50 at 24 h is listed for CC(=O)NC(CCC(N)=O)C(=O)NC(Cc1ccccc1)C(=O)NC(CCCNC(=N)N)C(=O)c1nc2ccccc2s1 (centres unmarked) ?
## Output 1.88

* * *

molecular target: human thrombin (Homo sapiens); construct: purchased MilliporeSigma; test: Protease selectivity, Ki on protease; assay type: biochemical; settings: single experiments N1-N3; Figure 1D; read-out: Individual Ki, Thrombin
pKi: −log10 of the molar value.
Measurement Name: pKi

## Input What value of measured pKi is listed for N=C(N)NCCCCC(=O)N[C@@H](CCC(=O)O)C(=O)N[C@@H](Cc1ccccc1)C(=O)N[C@@H](CCCNC(=N)N)C(=O)c1nc2ccccc2s1 ?
## Output < 5.00

* * *

Assign Figure 2b dose-response, Mean to each entry below.
system: SARS-CoV-2 lineage B strain (VIDO); experiment: microbe, parasite or virus in culture; type: cell-based; conditions: log [C] (nM) -1.19382
Structures can show the parent of a compound that is named as a salt.
One number for each entry.

CS(=O)(=O)NC(CCC(N)=O)C(=O)NC(Cc1ccccc1)C(=O)NC(CCCNC(=N)N)C(O)c1nc2ccccc2s1 (stereo not drawn) [N-0385(OH), Ms-QFR-Kbt(OH)]    84.82
CC(=O)NC(CCC(N)=O)C(=O)NC(Cc1ccccc1)C(=O)NC(CCCNC(=N)N)C(=O)c1nc2ccccc2s1 (stereo not drawn) [Compound N-0386, Ac-QFR-kbt]    95.046
CN(C)C(=O)COC(=O)Cc1ccc(OC(=O)c2ccc(NC(=N)N)cc2)cc1 [Camostat mesylate, reference compound]    94.4767
N=C(N)NCCCCC(=O)N[C@@H](CCC(=O)O)C(=O)N[C@@H](Cc1ccccc1)C(=O)N[C@@H](CCCNC(=N)N)C(=O)c1nc2ccccc2s1 [Compound N-0438, (H)REFR-kbt]    94.5427
CS(=O)(=O)NC(CCC(N)=O)C(=O)NC(Cc1ccccc1)C(=O)NC(CCCNC(=N)N)C(=O)c1nc2ccccc2s1 (stereo not drawn) [Compound N-0385, Ms-QFR-kbt]    85.6866

Please look at the following compound next.
## Input What value of measured Figure 2b dose-response, Mean is listed for N=C(N)NCCCCC(=O)NC(CCC(N)=O)C(=O)NC(Cc1ccccc1)C(=O)NC(CCCNC(=N)N)C(=O)c1nc2ccccc2s1 (stereo not drawn) [Compound N-0130, (H)RQFR-kbt] ?
## Output 97.2147

* * *

assay: Cytotoxicity CC50 in Calu-3 lung epithelial cells; type: cell-based, human; conditions: human, Calu-3 cells, Log [inhibitor] -5.00; single replicates; read-out: % of Viability
Assign viability at 24 h, 10 µM to each entry below.
One number for each entry, in %.

// known answers, use as guide
CS(=O)(=O)N[C@@H](CCC(N)=O)C(=O)N[C@@H](Cc1ccccc1)C(=O)N[C@@H](CCCNC(=N)N)C(=O)c1nc2ccccc2s1 [Compound N-385]    103
CC(=O)N[C@@H](CCC(N)=O)C(=O)N[C@@H](Cc1ccccc1)C(=O)N[C@@H](CCCNC(=N)N)C(=O)c1nc2ccccc2s1 [Compound N-386]    86
N=C(N)NCCCCC(=O)NC(CCC(N)=O)C(=O)NC(Cc1ccccc1)C(=O)NC(CCCNC(=N)N)C(=O)c1nc2ccccc2s1 (stereo not shown) [Compound N-0130, (H)RQFR-kbt]    98

Please look at the following compound next.
## Input What value of measured viability at 24 h, 10 µM is listed for N=C(N)NCCCCC(=O)N[C@@H](CCC(=O)O)C(=O)N[C@@H](Cc1ccccc1)C(=O)N[C@@H](CCCNC(=N)N)C(=O)c1nc2ccccc2s1 [Compound N-0438, (H)REFR-kbt] ?
## Output 93

* * *

target: human cathepsin L (Homo sapiens, UniProt P07711); construct: purchased Bio-Techne; experiment: Protease selectivity, Ki on protease; format: biochemical; conditions: single experiments N1-N4; Figure 1D; read-out: Individual Ki, Cathepsin L
Sequence (P07711 114-333): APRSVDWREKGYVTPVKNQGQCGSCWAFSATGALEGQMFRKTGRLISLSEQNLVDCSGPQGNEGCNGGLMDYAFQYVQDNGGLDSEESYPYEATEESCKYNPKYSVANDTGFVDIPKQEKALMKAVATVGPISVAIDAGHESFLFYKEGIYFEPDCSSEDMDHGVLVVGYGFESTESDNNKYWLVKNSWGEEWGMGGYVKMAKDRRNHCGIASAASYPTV
Measurement Name: Ki

N=C(N)NCCCCC(=O)N[C@@H](CCC(=O)O)C(=O)N[C@@H](Cc1ccccc1)C(=O)N[C@@H](CCCNC(=N)N)C(=O)c1nc2ccccc2s1    > 10 µM

Please look at the following molecule next.
## Input Request body: readout Ki, system human cathepsin L (Homo sapiens, UniProt P07711), query N=C(N)NCCCCC(=O)N[C@@H](CCC(N)=O)C(=O)N[C@@H](Cc1ccccc1)C(=O)N[C@@H](CCCNC(=N)N)C(=O)c1nc2ccccc2s1 . Return the value.
## Output > 10 µM
